TESTED_SYSTEM: HCV polymerase (Hepatitis C virus genotype 1b, UniProt P26663)
Construct: a region encoding NS5B (591 amino acids; J Virol 1991 Mar, 65(3), 1105-13) was amplified by PCR; 6 His (N); made in house; host or cells: Escherichia coli
Sequence (P26663 2420-3010): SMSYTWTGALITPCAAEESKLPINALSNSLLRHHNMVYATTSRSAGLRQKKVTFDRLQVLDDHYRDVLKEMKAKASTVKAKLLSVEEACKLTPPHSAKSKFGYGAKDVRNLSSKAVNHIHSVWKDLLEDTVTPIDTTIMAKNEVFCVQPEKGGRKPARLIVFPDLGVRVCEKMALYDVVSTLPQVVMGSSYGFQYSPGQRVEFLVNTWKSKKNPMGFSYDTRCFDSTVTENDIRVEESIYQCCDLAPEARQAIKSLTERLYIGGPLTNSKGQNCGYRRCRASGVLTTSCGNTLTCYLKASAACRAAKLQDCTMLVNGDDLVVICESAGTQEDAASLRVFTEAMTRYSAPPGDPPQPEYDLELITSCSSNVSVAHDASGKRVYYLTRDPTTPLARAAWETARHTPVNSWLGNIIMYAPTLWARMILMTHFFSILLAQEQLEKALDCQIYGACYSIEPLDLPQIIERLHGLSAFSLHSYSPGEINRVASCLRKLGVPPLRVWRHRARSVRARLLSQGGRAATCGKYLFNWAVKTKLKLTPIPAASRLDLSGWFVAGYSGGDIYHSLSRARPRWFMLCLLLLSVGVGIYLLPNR
PROTOCOL_NOTES: biochemical
MEASUREMENT_PARAMETERS: read-out: HCV polymerase inhibitory activity IC50
Counter-ions that a name gives are not always drawn.
For each record, write down the corresponding pIC50.
Please note pIC50 is a logarithmic value: minus log10 of concentration in mol/L. Answer with that number alone.

Query string: Find the recorded pIC50 belonging to O=C(O)c1ccc2c(c1)nc(-c1ccc(OCc3cc(Cl)ccc3-c3ccccc3C(F)(F)F)cc1)n2C1CCCCC1 [Example 151] and report it.
Result string: 6.70

Query string: Moving on to O=C(O)c1ccc2c(c1)nc(-c1ccc(OCc3ccc(Cl)c(Cl)c3)cc1)n2C1CCCC1 [Example 68]
Result string: 6.55

Query string: Cool, now O=C(O)c1ccc2c(c1)nc(-c1ccc(OCc3cccc(Cl)c3)cc1)n2C1CCCC1 [Example 55]
Result string: 6.44

Query string: Okay, and O=C(O)c1ccc2c(c1)nc(-c1ccc(OCc3cc(C(=O)NCc4ccncc4)ccc3-c3ccc(Cl)cc3)cc1)n2C1CCCCC1 [Example 318, dihydrochloride] ?
Result string: 7.92

Query string: Please do the same for O=C(O)c1ccc2c(c1)nc(-c1ccc(Oc3ccc(OCc4ccccc4)cc3)c(F)c1)n2C1CCCCC1 [Example 172] as well.
Result string: 7.00

Query string: CC(C)NC(=O)c1ccc(-c2ccc(Cl)cc2)c(COc2ccc(-c3nc4cc(S(N)(=O)=O)ccc4n3C3CCCCC3)c(F)c2)c1 [Example 447] ?
Result string: 6.92

Query string: # iterate: O=C(O)c1ccc2c(c1)nc(-c1ccc(OCc3cc(C(=O)N4CCOCC4)ccc3-c3ccc(Cl)cc3)cc1F)n2C1CCCCC1 [Example 290]
Result string: 7.92

Query string: Next: CC(C)NS(=O)(=O)c1ccc(-c2ccc(Cl)cc2)c(COc2ccc(-c3nc4cc(C(=O)O)ccc4n3C3CCCCC3)c(F)c2)c1 [Example 409, hydrochloride]
Result string: 7.70

Query string: Could you do the same for O=C(O)c1ccc2c(c1)nc(-c1ccc(Oc3cc(OCc4ccncc4)ncn3)cc1)n2C1CCCCC1 [Example 239] , please?
Result string: 6.77

Query string: And CN(C)C(=O)c1cc(OCc2ccncc2)cc(Oc2ccc(-c3nc4cc(C(=O)O)ccc4n3C3CCCCC3)cc2)c1 [Example 259, dihydrochloride] ?
Result string: 7.00

Query string: Now the compound NC(=O)Nc1ccc(-c2ccc(Cl)cc2)c(COc2ccc(-c3nc4cc(C(=O)O)ccc4n3C3CCCCC3)c(F)c2)c1 [Example 393, hydrochloride]
Result string: 7.96

Query string: Next compound: CCCN(c1ccc(-c2ccc(Cl)cc2)c(COc2ccc(-c3nc4cc(C(=O)O)ccc4n3C3CCCCC3)c(F)c2)c1)S(C)(=O)=O [Example 462, hydrochloride]
Result string: 7.55

---

TESTED_SYSTEM: HCV polymerase (Hepatitis C virus genotype 1b)
Construct: a region encoding NS5B (591 amino acids; J Virol 1991 Mar, 65(3), 1105-13) was amplified by PCR; 6 His (N); made in house; host or cells: Escherichia coli
PROTOCOL_NOTES: biochemical
MEASUREMENT_PARAMETERS: read-out: HCV polymerase inhibitory activity IC50
pIC50: −log10 of the molar value. Counter-ions that a name gives are not always drawn.
Rule: pIC50 under 7 gives rule not met, otherwise rule met.

Query string: Quick check, pIC50 >= 7? `O=C(O)c1ccc2c(c1)nc(-c1ccc(Oc3cccc(OCc4ccncc4)c3)cc1)n2C1CCCCC1`
Result string: rule met

Query string: Continue with `CC(C)(C)OC(=O)N1CCC(COc2ccccc2Oc2ccc(-c3nc4cc(C(=O)O)ccc4n3C3CCCCC3)cc2)CC1`
Result string: rule not met

Query string: Request: `O=C(O)c1ccc2c(c1)nc(-c1ccc(OCc3cc([N+](=O)[O-])ccc3-c3ccc(Cl)cc3)cc1)n2C1CCCCC1`
Result string: rule met

Query string: Query CC(CO)NC(=O)c1ccc(-c2ccc(Cl)cc2)c(COc2ccc(-c3nc4cc(C(=O)O)ccc4n3C3CCCCC3)c(F)c2)c1 (centres unmarked) [Example 381, hydrochloride] next
Result string: rule met

Query string: Next: `O=C(O)c1ccc2c(c1)nc(-c1ccc(Oc3cccc(OCc4ccnc(Cl)c4)c3)cc1)n2C1CCCCC1`
Result string: rule met

Query string: Similarly, `O=C(O)c1ccc(-c2ccc(Cl)cc2)c(COc2ccc(-c3nc4cc(C(=O)O)ccc4n3C3CCCCC3)c(F)c2)c1` ?
Result string: rule met

Query string: Repeat for the following molecule: `O=C(O)c1ccc2c(c1)nc(-c1ccc(Oc3ccc(OCc4ccccc4)cc3)cc1)n2C1CCCCC1`
Result string: rule met

Query string: Entry to check: CN(C)C(=O)c1ccc(-c2ccc(S(C)(=O)=O)cc2)c(COc2ccc(-c3nc4cc(C(=O)O)ccc4n3C3CCCCC3)cc2)c1 [Example 271, hydrochloride]
Result string: rule met

Query string: What about this molecule? CS(=O)(=O)Nc1ccc(-c2ccc(Cl)cc2)c(COc2ccc(-c3nc4cc(C(=O)O)ccc4n3C3CCCCC3)c(F)c2)c1 [Example 455, hydrochloride]
Result string: rule met

Query string: Also CN(Cc1ccccc1)C(=O)c1ccc(-c2ccc(Cl)cc2)c(COc2ccc(-c3nc4cc(C(=O)O)ccc4n3C3CCCCC3)cc2)c1 [Example 319, hydrochloride] ?
Result string: rule met

Query string: # iterate: `O=C(O)c1ccc2c(c1)nc(-c1ccc(N(Cc3ccccc3)Cc3ccccc3)cc1)n2C1CCCCC1`
Result string: rule not met

Query string: What do you get for `CN(C)C(=O)c1ccc(C(Oc2ccc(-c3nc4cc(C(=O)O)ccc4n3C3CCCCC3)c(F)c2)c2ccc(C(=O)N(C)C)cc2)cc1` ?
Result string: rule met

Query string: Also `Cc1cc(OCc2ccccc2-c2ccc(C(F)(F)F)cc2)ccc1-c1nc2cc(C(=O)O)ccc2n1C1CCCCC1` , if possible.
Result string: rule not met

Query string: Queued: `O=C(O)c1ccc(-c2ccc(Cl)cc2COc2ccc(-c3nc4cc(C(=O)O)ccc4n3C3CCCCC3)cc2)cc1`
Result string: rule met

Query string: Lookup O=C(O)c1ccc2c(c1)nc(-c1ccc(OCc3cc(Cl)ccc3-c3ccc(-c4nnn[nH]4)cc3)cc1)n2C1CCCCC1 [Example 369, hydrochloride]
Result string: rule met

Query string: Another: `O=C(O)c1ccc2c(c1)nc(-c1ccc(Oc3cccc(OCc4cccnc4)c3)cc1)n2C1CCCCC1`
Result string: rule met

Query string: Cool, now `O=C(O)c1ccc2c(c1)nc(-c1ccc(COc3ccccc3-c3ccccc3)s1)n2C1CCCCC1`
Result string: rule not met

Query string: How about this molecule: `Cc1nc(C)c(COc2cccc(Oc3ccc(-c4nc5cc(C(=O)O)ccc5n4C4CCCCC4)cc3)c2)s1`
Result string: rule met

Query string: Same for CN1CCN(C(=O)c2ccc(-c3ccc(Cl)cc3)c(COc3ccc(-c4nc5cc(C(=O)O)ccc5n4C4CCCCC4)cc3)c2)CC1 [Example 321, dihydrochloride]
Result string: rule met

Query string: Record: CCC(=O)N(CC)c1ccc(-c2ccc(Cl)cc2)c(COc2ccc(-c3nc4cc(C(=O)O)ccc4n3C3CCCCC3)c(F)c2)c1 [Example 467, hydrochloride]
Result string: rule met

Query string: Entry to check: CC(C)NC(=O)c1ccc(-c2ccc(Cl)cc2)c(COc2ccc(-c3nc4cc(C(=O)O)ccc4n3C3CCCC3)cc2)c1 [Example 413, hydrochloride]
Result string: rule met

Query string: One more molecule: CC1CCN(C(=O)c2ccc(-c3ccc(Cl)cc3)c(COc3ccc(-c4nc5cc(C(=O)O)ccc5n4C4CCCCC4)cc3)c2)CC1 [Example 341, hydrochloride]
Result string: rule met

Query string: Entry CC(C)NC(=O)c1ccc(-c2ccc(Cl)cc2)c(COc2ccc(-c3nc4cc(C(=O)O)ccc4n3C3CCSCC3)c(F)c2)c1 [Example 418, hydrochloride] please
Result string: rule met
